assay: Stability in human plasma assessed as compound remaining measured for 60 mins by HPLC analysis; assay type: ADME, cell-free; conditions: read-out: Stability
measure name: remaining at 1 h

Input: Requested read-out: remaining at 1 h. Entry: `Cc1c(COc2cc(OCc3ccnc(C#N)c3)c(CN([11CH3])CCO)cc2Cl)cccc1-c1ccc2c(c1)OCCO2`
Output: > 99%

###

experiment: Stability in mouse plasma assessed as compound remaining measured for 60 mins by HPLC analysis; format: ADME, cell-free; details: read-out: Stability
measure name: remaining at 1 h

Input: Requested read-out: remaining at 1 h. Entry: `Cc1c(COc2cc(OCc3ccnc(C#N)c3)c(CN([11CH3])CCO)cc2Cl)cccc1-c1ccc2c(c1)OCCO2`
Output: > 99%

###

The entries below come with measured pIC50 values attached.
target: Programmed cell death protein 1/Programmed cell death 1 ligand 1 (Homo sapiens); assay: Inhibition of His-tagged PD-1 (unknown origin)/hFc-tagged PD-L1 (unknown origin) protein-protein interaction incubated for 15 mins by HTRF assay; assay type: protein-complex assay
Sequence (Q15116 whole entry): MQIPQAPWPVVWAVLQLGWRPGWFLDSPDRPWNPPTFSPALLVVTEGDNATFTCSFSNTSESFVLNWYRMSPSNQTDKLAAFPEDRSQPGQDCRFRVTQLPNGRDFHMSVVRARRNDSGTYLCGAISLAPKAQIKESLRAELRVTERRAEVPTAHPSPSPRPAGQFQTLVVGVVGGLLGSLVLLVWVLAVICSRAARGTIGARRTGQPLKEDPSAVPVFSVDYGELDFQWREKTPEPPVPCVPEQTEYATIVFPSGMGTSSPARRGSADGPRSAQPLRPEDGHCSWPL
Sequence (Q9NZQ7 whole entry): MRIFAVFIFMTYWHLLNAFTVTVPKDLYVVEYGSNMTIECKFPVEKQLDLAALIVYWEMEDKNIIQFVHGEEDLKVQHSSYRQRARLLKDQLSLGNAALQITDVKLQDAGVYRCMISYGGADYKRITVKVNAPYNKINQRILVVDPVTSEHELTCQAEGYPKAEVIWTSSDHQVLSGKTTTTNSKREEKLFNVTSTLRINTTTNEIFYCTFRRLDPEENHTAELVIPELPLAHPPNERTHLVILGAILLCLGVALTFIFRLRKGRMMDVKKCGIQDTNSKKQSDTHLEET
Please note pIC50 is a logarithmic value: minus log10 of concentration in mol/L. Answer with that number alone.

[[record]]
substance_smiles = "N#Cc1cc(COc2cc(OCc3cccc(-c4ccc5c(c4)OCCO5)c3Br)c(Cl)cc2CN2CCCC[C@H]2C(=O)O)ccn1"
tgt = "Programmed cell death protein 1/Programmed cell death 1 ligand 1 (Homo sapiens)"
data_value = 12.00


Read the next record carefully.
Input: Requested read-out: pIC50. Entry: `N#Cc1cncc(COc2cc(OCc3cccc(-c4ccccc4)c3Br)c(Cl)cc2CN2CCCC[C@H]2C(=O)O)c1`
Output: 11.00
